Answer each item with its documented log10(IC50).
- Tested on: phosphorylation of pRb at the Ser780 site in JeKo-1 mantle cell lymphoma cells
- TEST_SUMMARY: CDK4 cellular assay: ELISA of pRb phosphorylation at Ser780 in JeKo-1 cells
- Type: cell-based
- CONDITION_PARAMETERS: Homo sapiens; JeKo-1 cells, p-pRb Ser780 ELISA, non-normalized; read-out: Cellular ppRb inhibition IC50
- Experimental: Cell-based assay measuring phosphorylation levels of pRb at the Ser780 site using an enzyme-linked immunosorbent assay (ELISA) method (Table 6). […] Plates were incubated overnight at 4° C. with rocking. […] After incubation, 50 μL 2 M sulfuric acid were added to plates to top the reaction, and absorbance was determined on a SpectraMax (Molecular Devices, Sunnydale, Calif.) within 15 minutes at 450 nm. […]
Could you please treat all values as log10 of IC50 in nM?

stdin: Fill in: log10(IC50) of CN(C)C(=O)c1cc2cnc(Nc3ccc(C(=O)N4CC5CC(C4)N(C)C5)cn3)nc2n1C1CCCC1 (centres unmarked) [Example 13] is ___
stdout: 1.81

stdin: # repeat for CN(C)C(=O)c1cc2cnc(Nc3ccc(C(=O)N4C[C@H]5CNC[C@@H](C4)C5O)cn3)nc2n1C1CCCC1 (some centres unmarked) [Example 1]
stdout: 2.56

stdin: # repeat for CN(C)C(=O)c1cc2cnc(Nc3ccc(C(=O)N4CC5CNCC(C4)O5)cn3)nc2n1C1CCCC1 [Example 47]
stdout: 2.50

stdin: # repeat for CC(=O)NCC(=O)N1[C@@H]2CC[C@H]1CN(c1ccc(Nc3ncc4cc(C(=O)N(C)C)n(C5CCCC5)c4n3)nc1)C(=O)C2 [Example 138]
stdout: 3.20

stdin: # repeat for CN(C)C(=O)c1cc2cnc(Nc3ccc(N4C[C@]5(CCCNCC5)OC4=O)cn3)nc2n1C1CCCC1 [Example 106]
stdout: 1.85

stdin: # repeat for CN(C)C(=O)c1cc2cnc(Nc3ccc(N4C[C@@H]5CNC[C@@H]5C4=O)cn3)nc2n1C1CCCCCC1 [Example 82]
stdout: 0.70

Reference source for all entries: patent US8957074B2
